# System: PfIESI-1 RRM domain (Plasmodium falciparum ortholog aa 875-1232, GST fusion)
# Protocol Text: RBNS R-value (6-mer enrichment in protein-bound RNA vs input library) (ratio); higher = stronger binding preference
# Study Conditions: protein concentration: 1000 nM
In all, about 4,100 sequences were measured (“RBNS R-value (6-mer enrichment in protein-bound RNA vs input library)”: median about 0.99, highest 2% from about 1.4 on). The full list was thinned out, with the highest values kept by preference.
Readout Type: RBNS R-value
Just the number, please, no unit after it.

Check out these entries, answers already filled in.
Polymer Sequence | Readout Type | Reported Value
CCCUGU | RBNS R-value | 0.981
GAGUCA | RBNS R-value | 0.99
GCAUGC | RBNS R-value | 1

Now for a further sequence.
RBNS R-value for GCCCCU ?
1.02

---

# Tested on: PfIESI-1 RRM domain (Plasmodium falciparum ortholog aa 875-1232, GST fusion)
# Protocol Text: RBNS R-value (6-mer enrichment in protein-bound RNA vs input library) (ratio); higher = stronger binding preference
# Study Conditions: protein concentration: 500 nM
The full ranking holds about 4,100 sequences; the median of “RBNS R-value (6-mer enrichment in protein-bound RNA vs input library)” is about 0.99, and the highest 2% start at about 1.4. What follows is part of a selection rich in the highest values, with near analogues and random picks from the rest.
Readout Type: RBNS R-value

Requested field: RBNS R-value. Item: GCUGAC
1.02

# RBNS R-value lookup, item GGAUAG
0.975

What value of RBNS R-value has been reported for the following sequence? AACACA
1.02

Endpoint output: RBNS R-value of GUAAUU . Value?
0.984

---

# Test system: PfIESI-1 RRM domain (Plasmodium falciparum ortholog aa 875-1232, GST fusion)
# Protocol Text: RBNS R-value (6-mer enrichment in protein-bound RNA vs input library) (ratio); higher = stronger binding preference; the methods of the paper give 50 / 100 / 500 nM protein instead
# Study Conditions: protein concentration: 500 nM
Over roughly 4,100 sequences, “RBNS R-value (6-mer enrichment in protein-bound RNA vs input library)” has its median near 0.99; the highest 2% begin near 1.4. Many of the other results were omitted from the sample, so the highest values are more common in it than they were.
Readout Type: RBNS R-value
Give a plain numeric answer without units written out.

Polymer Sequence | Reported Value
CAUUAC | 0.766
CGAGGC | 1.08
GGCACC | 1.2

Provide value of RBNS R-value for this record tested with PfIESI-1 RRM domain (Plasmodium falciparum ortholog aa 875-1232, GST fusion): CAUGAU
2.42

Identify the measured RBNS R-value of UAAAAA for PfIESI-1 RRM domain (Plasmodium falciparum ortholog aa 875-1232, GST fusion).
1.17

Can you look up RBNS R-value on PfIESI-1 RRM domain (Plasmodium falciparum ortholog aa 875-1232, GST fusion) for UUUUGA ?
1.59

Recorded RBNS R-value for AGCGGC with PfIESI-1 RRM domain (Plasmodium falciparum ortholog aa 875-1232, GST fusion), please?
1.03

Hello, I am looking for reported RBNS R-value with PfIESI-1 RRM domain (Plasmodium falciparum ortholog aa 875-1232, GST fusion) for ACACCU . Could you help?
1.16

Query the reported RBNS R-value for PfIESI-1 RRM domain (Plasmodium falciparum ortholog aa 875-1232, GST fusion); item: GCAUGA
1.43

Item CCAUCU with PfIESI-1 RRM domain (Plasmodium falciparum ortholog aa 875-1232, GST fusion) - RBNS R-value?
0.915

Notebook entry, PfIESI-1 RRM domain (Plasmodium falciparum ortholog aa 875-1232, GST fusion) assay: RBNS R-value of UAUGAU = ?
2.17

Give RBNS R-value (PfIESI-1 RRM domain (Plasmodium falciparum ortholog aa 875-1232, GST fusion)) of the following sequence: ACAUGA
1.37

Provide the documented RBNS R-value with PfIESI-1 RRM domain (Plasmodium falciparum ortholog aa 875-1232, GST fusion) as the system for CGAUCG
0.881
